Assay: amyloid nucleation score (Sup35N fusion, yeast selection) (log enrichment); library NNK1; higher = more nucleation; inactive = no reads after selection;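 note: zero at mode of non-aggregating sequences after 7 days selection at 30°C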
METRIC_NAME: amyloid nucleation score

INSERT INTO assay_data (substance, metric_name, quantitative_readout) VALUES
  ('YSVLVPIPLSCCISDVLYCT', 'amyloid nucleation score', 5.61),
  ('FFHAIIWRLIYRQFPDFVG', 'amyloid nucleation score', 0.984),
  ('IANGHKSSRCMQKDSSTS', 'amyloid nucleation score', 0.586),
  ('LRMFFDSTTILKLYERSWNI', 'amyloid nucleation score', 0.777),
  ('RVIPAAVISHYVK', 'amyloid nucleation score', -0.143),
  ('VLLTMWFNFFLLRNRGVVFS', 'amyloid nucleation score', 2.65),
  ('CRTTHQALRWIHMDYYYSWV', 'amyloid nucleation score', -0.327),
  ('MLWSKKGTGNYRYCRTGYTG', 'amyloid nucleation score', 0.322),
  ('YLPTVIPVFI', 'amyloid nucleation score', 0.125),
  ('THCLDCVPMNRVDNRCETFS', 'amyloid nucleation score', 0.028),
  ('CNKWRYSFVCIPGISRQ', 'amyloid nucleation score', 2.22),
  ('CRCYNWFRWSLMS', 'amyloid nucleation score', -0.07),
  ('TRNSDASGNCCVTGRDV', 'amyloid nucleation score', -0.849),
  ('LELLSSWWYSSIYTGTDCVT', 'amyloid nucleation score', 2.08),
  ('GFARLLLRRVHRAIISHFRF', 'amyloid nucleation score', -0.617),
  ('VDVMRVVLNLNCSRTSVIYM', 'amyloid nucleation score', 5.94),
  ('ICKFDLALKFRGRYTEAEWC', 'amyloid nucleation score', 1),
  ('WFWLIRMYMSFYVVAFVGSG', 'amyloid nucleation score', 1.31),
  ('SEAVCVRVQLAWDRLMGVRV', 'amyloid nucleation score', 0.966),
  ('SWIRNRWHYTQ', 'amyloid nucleation score', -0.141),
  ('ASLLMLLVGRKICLAQVNKG', 'amyloid nucleation score', 0.412),
  ('CNYTSPPLSVKDRASLCHTN', 'amyloid nucleation score', -0.301),
  ('TLVQCVSWISGSDKSHRMTI', 'amyloid nucleation score', -1.52),
  ('DYKVTRPVDLVFDFGGIVYT', 'amyloid nucleation score', 0.714),
  ('VTQSYDFKSLQIISIQN', 'amyloid nucleation score', 1.39),
  ('VMPSSELYF', 'amyloid nucleation score', 0.349),
  ('MIIRLVLVGSSYKNVPSAEG', 'amyloid nucleation score', 0.137),
  ('NGNDDLSQTTEVKGYVGATL', 'amyloid nucleation score', -0.3),
  ('AVYDLCD', 'amyloid nucleation score', 0.816),
  ('NNSKFMWQLSNWSWYTWHYI', 'amyloid nucleation score', -0.392),
  ('YIPQSPDDSFWEVMFYLFLS', 'amyloid nucleation score', -0.43),
  ('LFSSYSLEE', 'amyloid nucleation score', 1.1);

----------
Experiment: amyloid nucleation score (Sup35N fusion, yeast selection) (log enrichment); library NNK1; higher = more nucleation; inactive = no reads after selection
Some substances, each annotated with its measured amyloid nucleation score.
METRIC_NAME: amyloid nucleation score

INSERT INTO measurements (substance, quantitative_readout) VALUES
  ('MPCHAFAKMFVQSEFSGSVC', 0.498),
  ('LLFCQNDSGVVRLMLTVFLR', -0.791),
  ('ANIYGWDDPYFEQL', 0.045),
  ('DMTWNKQHFYGCSISYRSGT', 5.99),
  ('STALLS', 0.21),
  ('TPYLDFI', 1.12),
  ('GIDVCWSFFILYVWERVIRG', 0.337),
  ('YISFHTTSYRFRLYRLL', 0.894),
  ('MENEWIVTSCFLFWINFYSV', 4.23);

----------
Parameter amyloid nucleation score: see the listing below.
Assay: amyloid nucleation score (Sup35N fusion, yeast selection) (log enrichment); library NNK2; higher = more nucleation; inactive = no reads after selection
METRIC_NAME: amyloid nucleation score

INSERT INTO assay_data (substance, quantitative_readout) VALUES
  ('WDIFICLVL', -0.063),
  ('ADIAWSCRLESNCFPTLSMM', 0.255),
  ('CSYVDRTLGSNLWVVRSNSQ', 0.737),
  ('TPPWQGSDWCGNHCNWQGPM', 0.247),
  ('GSYFGHNIHLGAVWPIIGYP', 0.117),
  ('GCCPAALFEFT', -1.07),
  ('MIYERASSVRISFGMLRFRS', -1.48),
  ('PVIQYVTSG', -0.257),
  ('SFMDQHFS', -0.419),
  ('RCPLHPLGGLYTIWSDYLRL', 5.82),
  ('SDMRCGYMLRCWLVQRVSHR', 1.48),
  ('SSVIHYRT', 0.038),
  ('CCWLAMRVRFTMASKLPNFE', 3.34),
  ('AGPSCL', 0.537),
  ('DMNVVYTVCRVKARDCERDY', 5.32),
  ('ISGVLLWIRRFKHPICEEAW', 0.371),
  ('TKSGCRGIGHSSVVSS', 1.19),
  ('FVWMCQLS', 6.3);

----------
Listed here: items and their measured amyloid nucleation score.
Assay: amyloid nucleation score (Sup35N fusion, yeast selection) (log enrichment); library NNK1; higher = more nucleation; inactive = no reads after selection
METRIC_NAME: amyloid nucleation score

INSERT INTO results (substance, metric_name, quantitative_readout) VALUES
  ('FVATNPVL', 'amyloid nucleation score', 0.588),
  ('QMRAFSDLFLLSDY', 'amyloid nucleation score', 0.406),
  ('FSGHNC', 'amyloid nucleation score', 0.299),
  ('IRSFPTV', 'amyloid nucleation score', 0.075),
  ('KLGPVTYLYP', 'amyloid nucleation score', -0.03),
  ('LMNICRNVARG', 'amyloid nucleation score', -0.876),
  ('IFTFSIVTSNATGYLW', 'amyloid nucleation score', 2.29),
  ('LRYIMPDND', 'amyloid nucleation score', -1.09),
  ('GMTLMVAEFGLIRLVNTLAI', 'amyloid nucleation score', 0.785),
  ('FLCEAFDQGNLVIIDP', 'amyloid nucleation score', -0.502),
  ('SSFLFSFWGAIGSIKSTFFW', 'amyloid nucleation score', -0.054),
  ('PLLERHVAGLCGFFF', 'amyloid nucleation score', -0.908),
  ('YDFLPRVNNPLSRNLRHRAL', 'amyloid nucleation score', -0.071),
  ('NDLFMESLL', 'amyloid nucleation score', 0.025),
  ('GHSLHLWVTTKS', 'amyloid nucleation score', 0.561),
  ('IDKGLHALLSTLLSINVSFC', 'amyloid nucleation score', 2.95),
  ('NFTTVAVLRFNDNGR', 'amyloid nucleation score', 4.43),
  ('GRVVAHLNRRHR', 'amyloid nucleation score', 1.38),
  ('ALCLSRARSSG', 'amyloid nucleation score', -0.152);

----------
Experiment: amyloid nucleation score (Sup35N fusion, yeast selection) (log enrichment); library NNK1; higher = more nucleation; inactive = no reads after selection
METRIC_NAME: amyloid nucleation score

INSERT INTO measurements (substance, result) VALUES
  ('FDAMSANLESIYFSFNENMY', -0.572),
  ('RWFDYDESESVKSVHLNLVR', -1.37),
  ('EYVVRYSCMWRE', 0.485),
  ('LFRIIWGCS', 'inactive'),
  ('FRYLVKYRVLH', 0.14),
  ('IYLNFLPVVPCRFFCIRTWG', 'inactive'),
  ('IWLFFFPMSLRFASYWTGLL', -1.1),
  ('FRLRVSGVSCMR', -0.912),
  ('HLWHSGPFVRMCCATFIFLA', 0.49),
  ('KTPLYLPYLYFSIRLMCYWY', -0.47),
  ('SLLMRIS', -0.434),
  ('VALDIGFSWALSRLWLKRHF', 0.095),
  ('AKGYSYCKLI', -0.804),
  ('LLDKTTVKVILCLFNDTINL', 7.86),
  ('RDKMDDWFQRHMESGTRTRE', 0.053),
  ('CWCGVTVCV', -0.276),
  ('FRVLNCVSYVFFQRHFRRCG', -0.974),
  ('SSCGFMRNVIITMHKADIDR', 'inactive'),
  ('LSKCTKRKFTMCWDSLVRK', 0.779),
  ('MGNIVTLHFSHVGHRYSKWV', 'inactive'),
  ('ISTPKDISSPKSFWNIFFGT', 4.65),
  ('FWGFVGTVMLLKCVFHGVSA', 0.628),
  ('QSGPSAVY', 0.362),
  ('VTDFVALFVIGTGPVVGLRW', 1.27),
  ('GMWSTNANTPILVILRGVVM', 0.71),
  ('FLRSIKWVTVVS', 0.51),
  ('SVTLCKFRKT', -0.197),
  ('MLRMLAVQCFSSCIARLD', 2.05),
  ('QIIWVIRFLLVCVFTLSKLV', 'inactive'),
  ('NGRENWSDETGSMFECALYS', 1.28),
  ('EVCVLRTLNRKNFDEPDNCI', 0.913),
  ('LLRVVKHCLCWNRYNDSDAG', 1.05),
  ('LVGFSVSYKVSENFCSTL', 'inactive'),
  ('FVGCRHHFGPCTNRCTK', 0.087),
  ('SRMWMFFDCIISIINMAEDT', 7.45),
  ('PAALAWTNFLKASYDLKMGA', -0.587),
  ('SSNLRKTFMSAMHVSSCMV', 0.396),
  ('TPTTLKDYYPRAGNINRMTY', -0.15),
  ('RDSLSSVSA', -0.382),
  ('WHSMKMCF', 0.115),
  ('SIAYPRNIELRWDEIGGDML', 0.178),
  ('LLSPFCVVLGSSTTGTMVNM', 0.287),
  ('GTSKTTGERDWLRPMTRDI', -0.94),
  ('YRSGSMLCNYPSRAVTVCWS', 1.16),
  ('PCLSDMRLTSAEKGFV', 0.455),
  ('TLSGVYTFCMFLVWVDSASG', 0.843),
  ('FPDELESWRTSASPRVAPMG', -0.247),
  ('PEVSIFFLFLGMVYLMWQWV', -0.839),
  ('FWIFRVLSINANTELSWDIV', -0.631),
  ('CMPCSDFGSLWVAMDMNCFR', 4.1),
  ('FSKCSFT', -0.169),
  ('LYFQAFHYQQWCIWFYFYIL', 1.42),
  ('FEGILIKFCFGAWESDKVTM', 1.36),
  ('DANNIRLDDSFELRWCKNVC', -1.36),
  ('FGMNLILHCTPTQRTYISPV', 2.83),
  ('LGLTYWCYNFIQGDVFPPVQ', 3.46),
  ('TSEQYESLCWVSSLRRIFQK', 0.043),
  ('AYMWLGAINICLWYWSLGR', 3.02),
  ('CLIESIWKLVVSNGSKYISY', -0.181),
  ('RSCSNRIIKCNLSHVMFY', 4.45),
  ('QDFVMSYLCRLKGWLDKRYR', 0.472),
  ('SSNRLSSMQG', 1.09),
  ('LLSGNGQRLSSEQTCRELVG', -0.727),
  ('FVYHWRSVKGNLVWRCGSMD', 0.95),
  ('FYFRPNDQSWYVTRLFLSPA', 0.491),
  ('SILIRLIISTINCCVNNVAF', 5.43),
  ('MSIAMDGYFYPSSAAPFFIT', -0.156),
  ('VLSSDGGGFVYFRYSGYTCR', 0.253),
  ('SMEIYLDFMNVCSKMVNASG', -0.093),
  ('LNYSWDWLVVCIVANVRTYD', 2.22),
  ('HPLRLYRKSISINVVLSSCL', 0.733);

Source of measurements: the supplement of paper PMC12042874
